test-summary: Ex vivo biodistribution in Daudi xenograft-bearing mice
experimental-context: male, NOD.Cg-Rag1tm1Mom Il2rgtm1Wjl/SzJ (NRG), mouse, tumor (Daudi xenograft), iv, total radioactivity, Tumor uptake (Daudi xenograft), 2 h p.i., mean
Where a SMILES comes first, the peptide text is derived from it. Side-chain parts run from the residue outwards. [ ]: non-standard residue; d: D form. The star is where a group is joined. DOTA = O=C(O)CN1CCN(CC(=O)O)CCN(CC(=O)*)CCN(CC(=O)O)CC1; 2Nal = N[C@@H](Cc1ccc2ccccc2c1)C(=O)O; dNMeOrn = CN[C@H](CCCN)C(=O)O; 4Amb = NCc1ccc(C(=O)O)cc1
measurement-name: tissue uptake at 2 h
Could you write the number and then its unit?

# tissue uptake at 2 h lookup, item CN1C(=O)[C@@H](Cc2ccc(O)cc2)NC(=O)CNC(=O)[C@H](Cc2ccc3ccccc3c2)NC(=O)[C@H](CCCNC(=N)N)NC(=O)[C@H]1CCCNC(=O)c1ccc(CNC(=O)CN2CCN(CC(=O)O)CCN(CC(=O)O)CCN(CC(=O)O)CC2)cc1 [[68Ga]Ga-Pentixafor, metal not drawn] (cyclo([dY][dNMeOrn]([4Amb-DOTA])R[2Nal]G)) 5.23 %ID/g

----------
test-summary: Ex vivo biodistribution in Daudi xenograft-bearing mice
experimental-context: male, NOD.Cg-Rag1tm1Mom Il2rgtm1Wjl/SzJ (NRG), mouse, kidney, iv, total radioactivity, Kidney uptake, 1 h p.i. blocked with LY2510924, mean
Where a SMILES comes first, the peptide text is derived from it. Side-chain parts run from the residue outwards. [ ]: non-standard residue; d: D form. The star is where a group is joined. DOTA = O=C(O)CN1CCN(CC(=O)O)CCN(CC(=O)*)CCN(CC(=O)O)CC1; 2Nal = N[C@@H](Cc1ccc2ccccc2c1)C(=O)O; dNMeOrn = CN[C@H](CCCN)C(=O)O; 4Amb = NCc1ccc(C(=O)O)cc1
measurement-name: tissue uptake at 1 h (%ID/g)
The reply should contain only the number, in %ID/g.

# tissue uptake at 1 h lookup, item CN1C(=O)[C@@H](Cc2ccc(O)cc2)NC(=O)CNC(=O)[C@H](Cc2ccc3ccccc3c2)NC(=O)[C@H](CCCNC(=N)N)NC(=O)[C@H]1CCCNC(=O)c1ccc(CNC(=O)CN2CCN(CC(=O)O)CCN(CC(=O)O)CCN(CC(=O)O)CC2)cc1 [[68Ga]Ga-Pentixafor, metal not drawn] (cyclo([dY][dNMeOrn]([4Amb-DOTA])R[2Nal]G)) 3.16

----------
test-summary: Ex vivo biodistribution in Daudi xenograft-bearing mice
experimental-context: male, NOD.Cg-Rag1tm1Mom Il2rgtm1Wjl/SzJ (NRG), mouse, blood, iv, total radioactivity, Blood uptake, 2 h p.i., mean
Where a SMILES comes first, the peptide text is derived from it. Side-chain parts run from the residue outwards. [ ]: non-standard residue; d: D form. The star is where a group is joined. DOTA = O=C(O)CN1CCN(CC(=O)O)CCN(CC(=O)*)CCN(CC(=O)O)CC1; 2Nal = N[C@@H](Cc1ccc2ccccc2c1)C(=O)O; dNMeOrn = CN[C@H](CCCN)C(=O)O; 4Amb = NCc1ccc(C(=O)O)cc1
measurement-name: tissue uptake at 2 h (%ID/g)
The reply should contain only the number, in %ID/g.

# tissue uptake at 2 h lookup, item CN1C(=O)[C@@H](Cc2ccc(O)cc2)NC(=O)CNC(=O)[C@H](Cc2ccc3ccccc3c2)NC(=O)[C@H](CCCNC(=N)N)NC(=O)[C@H]1CCCNC(=O)c1ccc(CNC(=O)CN2CCN(CC(=O)O)CCN(CC(=O)O)CCN(CC(=O)O)CC2)cc1 [[68Ga]Ga-Pentixafor, metal not drawn] (cyclo([dY][dNMeOrn]([4Amb-DOTA])R[2Nal]G)) 0.28
